Data origin: patent US20060035332

Molecular target: human OT7T022 receptor (human)
Sequence (chain, as listed by the source): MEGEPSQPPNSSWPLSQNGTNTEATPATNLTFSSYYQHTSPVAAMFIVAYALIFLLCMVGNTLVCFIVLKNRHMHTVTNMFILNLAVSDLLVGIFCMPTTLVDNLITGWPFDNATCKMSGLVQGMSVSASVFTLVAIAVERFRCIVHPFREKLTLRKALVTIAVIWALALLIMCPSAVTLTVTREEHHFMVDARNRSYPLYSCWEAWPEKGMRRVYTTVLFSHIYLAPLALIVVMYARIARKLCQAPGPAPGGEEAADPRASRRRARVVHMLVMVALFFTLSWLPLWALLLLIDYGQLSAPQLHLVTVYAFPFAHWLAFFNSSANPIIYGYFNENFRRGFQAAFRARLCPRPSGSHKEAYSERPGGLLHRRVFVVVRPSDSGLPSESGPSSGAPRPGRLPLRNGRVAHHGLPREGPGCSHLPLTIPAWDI
Assay: competition, 125I-Tyr-hRFRP-3(8), pH 7.5, room temperature
Settings: modification not given
Please provide measured IC50 for the entries that follow.
Kindly provide the numeric value in nM only, without the unit symbol.

Quick one: IC50 for LPQRF [hRFRP-3(5)] ?
2.1

Please report the recorded IC50 for SAGATANLPLRSGRNMEVSLVRRVPNLPQRF [hRFRP-3(31)] .
1.3

Entry ATANLPLRSGRNMEVSLVRRVPNLPQRF [hRFRP-3(28)] : reported IC50 = ?
1.1
